// data source = paper PMC6151383

Tested on: Aspergillus fumigatus 231
experiment: Antifungal microdilution broth MIC, A. fumigatus
Assay type: cell-based
protocolConditions: Aspergillus fumigatus, 231; 48 h incubation; read-out: MIC AF 48 h
recordedEndpoint: MIC (µM)
// return numeric value only (unit: µM, not printed)

Prompt line: Requested read-out: MIC. Entry: O=S(=O)(Nc1ncccn1)c1ccc(N=Cc2cccc(Cl)c2O)cc1 [Compound 2l]
Response line: 250

Prompt line: Repeat with O=S(=O)(Nc1ncccn1)c1ccc(N=Cc2cc(Br)ccc2O)cc1 [Compound 2d]
Response line: 250

Prompt line: Input O=[N+]([O-])c1ccc(C=Nc2ccc(S(=O)(=O)Nc3ncccn3)cc2)o1 [Compound 2q]
Response line: 500

Prompt line: Moving on to the next molecule: O=S(=O)(Nc1ncccn1)c1ccc(N=Cc2cc(I)ccc2O)cc1 [Compound 2e]
Response line: 250
